Just for reference, patent US11649460B2 is where these values come from.

Below: a set of entries, each annotated with reported TGI: Concentration for total inhibition of cell growth.
- Tested on: A-375 human malignant melanoma
- experimental_details: SRB cell proliferation (cytotoxicity) assay, A-375
- condition_description: A-375
Your answer is read as µM, so omit the unit and give the number.

Recorded TGI: Concentration for total inhibition of cell growth, per entry:
[
  {
    "molecule": "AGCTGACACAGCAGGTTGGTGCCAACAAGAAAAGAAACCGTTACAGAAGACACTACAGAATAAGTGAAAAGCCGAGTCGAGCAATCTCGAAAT (nucleic acid, chemistry not given here) DNA: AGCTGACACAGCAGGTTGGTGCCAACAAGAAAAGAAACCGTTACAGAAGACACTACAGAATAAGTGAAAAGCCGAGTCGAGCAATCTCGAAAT",
    "value_observed": 74.279
  },
  {
    "molecule": "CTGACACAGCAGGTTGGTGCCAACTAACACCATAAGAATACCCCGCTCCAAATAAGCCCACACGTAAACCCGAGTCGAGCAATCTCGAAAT (nucleic acid, chemistry not given here, DNA aptamer that recognizes human galectin-1) DNA: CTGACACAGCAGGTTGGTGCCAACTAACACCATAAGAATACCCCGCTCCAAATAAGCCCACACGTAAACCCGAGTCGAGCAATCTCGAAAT",
    "value_observed": 29.656
  },
  {
    "molecule": "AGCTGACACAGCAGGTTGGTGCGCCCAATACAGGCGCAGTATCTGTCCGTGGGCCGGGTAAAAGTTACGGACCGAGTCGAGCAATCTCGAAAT (nucleic acid, chemistry not given here) DNA: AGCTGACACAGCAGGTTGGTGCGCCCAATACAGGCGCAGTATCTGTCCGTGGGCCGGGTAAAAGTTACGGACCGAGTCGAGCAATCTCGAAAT",
    "value_observed": 36.326
  }
]

Next item in the queue.
Using the record for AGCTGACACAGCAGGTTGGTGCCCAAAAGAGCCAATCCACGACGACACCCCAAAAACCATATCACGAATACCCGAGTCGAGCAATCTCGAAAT (nucleic acid, chemistry not given here) DNA: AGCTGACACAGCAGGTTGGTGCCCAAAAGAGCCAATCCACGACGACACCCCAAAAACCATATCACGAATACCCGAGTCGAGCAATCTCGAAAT , report its TGI: Concentration for total inhibition of cell growth.
90.397
